biological target: α7^L131G,Q139L,Y217F-GlyR (PSAM^4-GlyR) (Homo sapiens, UniProt P36544, L131G/Q139L/Y217F); assay: Membrane potential
Sequence (P36544 23-229 L131G/Q139L/Y217F): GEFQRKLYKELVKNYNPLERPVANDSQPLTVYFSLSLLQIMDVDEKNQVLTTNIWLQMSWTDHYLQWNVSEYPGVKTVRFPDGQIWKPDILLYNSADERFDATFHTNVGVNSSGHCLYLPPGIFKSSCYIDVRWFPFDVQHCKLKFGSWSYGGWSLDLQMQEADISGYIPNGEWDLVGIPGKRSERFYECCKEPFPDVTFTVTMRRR
Sequence (P23415 248-457 partner): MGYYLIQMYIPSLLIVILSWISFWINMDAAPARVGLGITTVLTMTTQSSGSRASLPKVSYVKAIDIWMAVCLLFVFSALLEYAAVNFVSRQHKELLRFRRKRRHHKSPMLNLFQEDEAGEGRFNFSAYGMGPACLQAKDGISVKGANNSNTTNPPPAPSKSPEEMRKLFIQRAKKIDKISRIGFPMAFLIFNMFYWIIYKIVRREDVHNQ
readout name: pEC50
Remember the convention: pEC50 equals -log10 of concentration in molar.

QUERY: Tell me the measured pEC50 of C[N+](C)(C)CCO , please.
RESULT: 3.89
